I'd be grateful if you could share measured koff for these entries.
- system: recombinant human NKp30 extracellular domain, his-tagged (human) (UniProt O14931)
- Sequence (O14931 19-135): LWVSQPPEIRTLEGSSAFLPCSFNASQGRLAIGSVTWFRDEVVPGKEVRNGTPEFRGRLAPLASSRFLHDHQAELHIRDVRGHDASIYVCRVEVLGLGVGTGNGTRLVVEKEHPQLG
- method summary: BLI, SEEDbody on anti-human Fc sensors, soluble NKp30, 1:1 fit
# unit: s⁻¹ | format: bare number

[in] State, in one line, measured koff of VHH5 SEEDbody eff- (bispecific antibody, part only; not given: silenced SEED Fc and cetuximab Fab, V domains shown, not shown: another chain or arm of the molecule; a dimerising Fc or GST; small tags and cut ends) VHH: DVQLQESGGGLVQPGESLRLSCLVSGVTYHFYDITWFRQAPGLEREGVSCISYASGSTKFADSVKGRFTISRDNAKNAVYLQMNSLKPEDTAVYFCATQGSGSCSDFMSADSVLSWGQGTQVTVSS
[out] 0.000186

[in] State, in one line, measured koff of VHH16 SEEDbody eff- (bispecific antibody, part only; not given: silenced SEED Fc and cetuximab Fab, V domains shown, not shown: another chain or arm of the molecule; a dimerising Fc or GST; small tags and cut ends) VHH: DVQLQESGGGLVQPGGSLRLSCTASGSIFSSLTMAWWRQAPGKQRELVAGITTDGSTDYADSVKGRFTISRDNAKNTVYLQMDSLKPEDTAVYYCNKSPYYDPTDYDSWGQGTQVTVSS
[out] 9.28e-05

[in] State, in one line, measured koff of VHH7 SEEDbody eff- (bispecific antibody, part only; not given: silenced SEED Fc and cetuximab Fab, V domains shown, not shown: another chain or arm of the molecule; a dimerising Fc or GST; small tags and cut ends) VHH: DVQLQESGGGLAQPGGSLRLSCAASGFTFSSYDMGWYRQVPGKECELVAAIFSAGGSTIYADSVKGRFTISRDNAKNTVFLQMNSLKPEDTAVYYCNKAPPFTTIQPTCVMIDTQLGAWGQGTQVTVSS
[out] 0.00352

[in] State, in one line, measured koff of VHH10 SEEDbody eff- (bispecific antibody, part only; not given: silenced SEED Fc and cetuximab Fab, V domains shown, not shown: another chain or arm of the molecule; a dimerising Fc or GST; small tags and cut ends) VHH: DVQLQESGGGSVQAGGSLRLSCAASGRTFSSNFMGWFRQAPNKDREFVAAIHWSGGSRAYADSVKGRFTISRDNTKDTVYLLVNSLKLEDTAVYYCAAEISWQTTGWTNLGSWGQGTQVTVSS
[out] 8.75e-05

[in] State, in one line, measured koff of VHH11 SEEDbody eff- (bispecific antibody, part only; not given: silenced SEED Fc and cetuximab Fab, V domains shown, not shown: another chain or arm of the molecule; a dimerising Fc or GST; small tags and cut ends) VHH: DVQLQESGGGLVQAGGSLRLSCAASGRTFSSDFMGWFRQAPGKEREFVAAIHWSGGSTSYADSVKGRFTISRDNAKDTVYLLMNSLKLEDTAVYYCAAEIRWLTTGWANLGSWGQGTQVTVSS
[out] 0.000415

[in] State, in one line, measured koff of VHH14 SEEDbody eff- (bispecific antibody, part only; not given: silenced SEED Fc and cetuximab Fab, V domains shown, not shown: another chain or arm of the molecule; a dimerising Fc or GST; small tags and cut ends) VHH: DVQLQESGGGLVQPGGSLRLSCEASGVTFNFYSMTWYRQAPGKERELVADITSEGRTEYAHSVKGRFIISRDDFGTMVYLQMNSLKPEDTAVYYCYTGGSWGQGTQVTVSS
[out] 0.000144

[in] State, in one line, measured koff of VHH1 SEEDbody eff- (bispecific antibody, part only; not given: silenced SEED Fc and cetuximab Fab, V domains shown, not shown: another chain or arm of the molecule; a dimerising Fc or GST; small tags and cut ends) VHH: DVQLQESGGGLVQPGGSLRLSCATSGFTLDDYTIGWVRQAPGKEHEGVSCFSPSDGTTYYADSVKGRFTFSRDNAKNTVYLQMNSLKPEDTAVYYCAASFADGSSWCYDYWGQGTQVTVSS
[out] 0.000222
